The reported measurements were obtained from the NIST ThermoML archive (doi:10.1016/j.jct.2017.08.004).

Experiment: molar heat capacity at constant pressure
Conditions: 211.15 K; 101.33 kPa; Crystal; Small sample (50 mg) DSC
Measured molar heat capacity at constant pressure, listed per entry.
Response body: numeric value in J/K/mol, unit text excluded.

Looking up O[C@H]1[C@H](O)[C@@H](O)[C@H](O)[C@@H](O)[C@H]1O [cis-1,2,3,5-trans-4,6-cyclohexanehexol] , I found its molar heat capacity at constant pressure recorded as 151.82

Looking up OC[C@@H](O)[C@H](O)[C@@H](O)CO [xylitol] , I found its molar heat capacity at constant pressure recorded as 148.54

Looking up OC[C@@H](O)C(O)[C@H](O)CO [D-arabitol] , I found its molar heat capacity at constant pressure recorded as 142.48

Looking up OC[C@@H](O)[C@@H](O)CO [meso-1,2,3,4-butanetetrol] , I found its molar heat capacity at constant pressure recorded as 119.05

Looking up OC[C@@H](O)[C@@H](O)[C@H](O)[C@H](O)CO [D-mannitol] , I found its molar heat capacity at constant pressure recorded as 165.46

Looking up OC[C@H](O)C(O)[C@@H](O)CO [L-(-)-arabitol] , I found its molar heat capacity at constant pressure recorded as 147.05
